Molecular target: T1, C-reactive protein (CRP) (UniProt P02741 19-224)
T1 sequence: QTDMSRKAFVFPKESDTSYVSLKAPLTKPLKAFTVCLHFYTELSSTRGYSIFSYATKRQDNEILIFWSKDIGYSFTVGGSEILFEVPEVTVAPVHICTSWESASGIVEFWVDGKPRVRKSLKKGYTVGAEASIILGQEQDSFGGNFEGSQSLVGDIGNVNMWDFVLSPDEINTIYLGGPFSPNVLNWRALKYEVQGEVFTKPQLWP
Assay: square-wave voltammetry (Langmuir isotherm, MB signal-off electrode); 2 mM CaCl2; 60 min incubation; KL 1.07 pM-1; CRP incubation in 0.1 M Tris pH 7.4, 2 mM CaCl2, 60 min; SWV read-out in PBS (0.1 M, pH 7.4); BSA-blocked electrode; incubation temperature not stated (298 K used in calculations)
Conditions: protein: commercial; chain copies: 5; label: methylene blue self-assembled (non-covalent); immobilized via glutaraldehyde on CNFs-chitosan carbon screen-printed electrode
Property Measured: Kd (pM)
Lab book: enter the figure in pM, no units written.

Request: What value of measured Kd is listed for GCCUGUAAGGUGGUCGGUGUGGCGAGUGUGUUAGGAGAGAUUGC (structured_RNA, 5'-NH2-(CH2)6) [CRP RNA aptamer (5'-amino)] ?
Response: 0.93
